Endpoint: melting point

# melting point lookup, item FC(F)(F)c1ccc(Cl)c(CN2CCNc3ncc(I)cc32)c1 [Example 119]
120 to 125 °C

Next molecule: O=C1CNc2ncc(-c3ccc(NS(=O)(=O)CCN4CCCC4)cc3)cc2N1Cc1cc(F)ccc1F [Example 48]
> 300 °C

Further cases:
Quick one: melting point of O=C(O)c1ccc(-c2cnc3c(c2)N(Cc2ccccc2)C(=O)CN3)cc1 [Example 10] ?
> 200 °C

Can you handle CCOC(=O)CNc1ncc(I)cc1[N+](=O)[O-] [Example 1] next?
200 °C (dec.)

Same thing, different molecule: O=C(NCCN1CCCC1)c1ccc(-c2cnc3c(c2)N(Cc2cc(F)ccc2F)C(=O)CN3)cc1 [Example 58]
235 °C (dec.)

Ok, now CN1CCN(c2ccc(-c3cnc4c(c3)N(Cc3cc(F)ccc3F)CCN4)cn2)CC1 [Example 69]
192 to 193 °C

Similarly, Ic1cnc2c(c1)NCCN2 [Example 40] ?
126 to 128 °C

Please answer likewise for O=C1CCNc2nc(Br)ccc21 [Example 266]
196 to 197 °C

And Fc1ccc(F)c(CN2CCNc3ncc(-c4ccc(N5CCOCC5)cc4)cc32)c1Cl [Example 108] ?
217 to 219 °C

Now consider O=C1CNc2ncc(-c3ccc(C(=O)N4CCC[C@H]4CN4CCCC4)cc3)cc2N1Cc1cc(F)c(F)cc1F [Example 83] and answer again.
117 to 118 °C
